- PROTOCOL_NOTES: Cytotoxicity against MDCK cells
- Assay type: cell-based, Canis lupus familiaris
- RECORDED_CONDITIONS: dog
PROPERTY_LABEL: CC50 (µM)
Write the value in µM as a bare number.

Observe how each entry below is paired with its result.
{"columns": ["ENTRY_SMILES", "PROPERTY_LABEL", "MEASURED_RESULT"],
 "data": [
  ["CCOC(=O)[C@]12CC[C@@H](C)[C@H](C)[C@H]1C1=CC[C@@H]3[C@@]4(C)CC[C@H](O[C@@H]5O[C@H](CO)[C@@H](O[C@@H]6O[C@@H](C)[C@H](O)[C@@H](O)[C@H]6O)[C@H](O)[C@H]5O[C@@H]5O[C@@H](C)[C@H](O)[C@@H](O)[C@H]5O)C(C)(C)[C@@H]4CC[C@@]3(C)[C@]1(C)CC2", "CC50", 19.1],
  ["CCN(CC)C(=O)[C@]12CC[C@@H](C)[C@H](C)[C@H]1C1=CC[C@@H]3[C@@]4(C)CC[C@H](O[C@@H]5O[C@H](CO)[C@@H](O[C@@H]6O[C@@H](C)[C@H](O)[C@@H](O)[C@H]6O)[C@H](O)[C@H]5O[C@@H]5O[C@@H](C)[C@H](O)[C@@H](O)[C@H]5O)C(C)(C)[C@@H]4CC[C@@]3(C)[C@]1(C)CC2", "CC50", 47],
  ["C[C@H]1[C@H](C)CC[C@]2(C(=O)O)CC[C@]3(C)C(=CC[C@@H]4[C@@]5(C)CC[C@H](O[C@@H]6O[C@H](CO)[C@@H](O[C@@H]7O[C@@H](C)[C@H](O)[C@@H](O)[C@H]7O)[C@H](O)[C@H]6O[C@@H]6O[C@@H](C)[C@H](O)[C@@H](O)[C@H]6O)C(C)(C)[C@@H]5CC[C@]43C)[C@H]12", "CC50", 26.2]
]}

As a next step, examine the compound that follows.
(Q) Tell me measured CC50 for `COC(=O)[C@]12CCC(C)(C)C[C@H]1C1=CC[C@@H]3[C@@]4(C)CC[C@H](O[C@@H]5O[C@H](CO)[C@@H](O[C@@H]6O[C@@H](C)[C@H](O)[C@@H](O)[C@H]6O)[C@H](O)[C@H]5O[C@@H]5O[C@@H](C)[C@H](O)[C@@H](O)[C@H]5O)C(C)(C)[C@@H]4CC[C@@]3(C)[C@]1(C)CC2` please.
(A) 16.9

###

- PROTOCOL_NOTES: Cytotoxicity against MDCK cells
- Type: cell-based, Canis lupus familiaris
- RECORDED_CONDITIONS: dog
Assign classes using reported CC50 values and the ranges Low (below 20 µM), Mid (20 µM to below 30 µM), High (30 µM or more), please.

(Q) Where would `COC(=O)[C@]12CC[C@@H](C)[C@H](C)[C@H]1C1=CC(=O)[C@@H]3[C@@]4(C)CC[C@H](O[C@@H]5O[C@H](CO)[C@@H](O[C@@H]6O[C@@H](C)[C@H](O)[C@@H](O)[C@H]6O)[C@H](O)[C@H]5O[C@@H]5O[C@@H](C)[C@H](O)[C@@H](O)[C@H]5O)C(C)(C)[C@@H]4CC[C@@]3(C)[C@]1(C)CC2` land among the classes by reported CC50?
(A) High

(Q) Where would `C[C@H]1[C@H](C)CC[C@]2(C(=O)N(C)C)CC[C@]3(C)C(=CC[C@@H]4[C@@]5(C)CC[C@H](O[C@@H]6O[C@H](CO)[C@@H](O[C@@H]7O[C@@H](C)[C@H](O)[C@@H](O)[C@H]7O)[C@H](O)[C@H]6O[C@@H]6O[C@@H](C)[C@H](O)[C@@H](O)[C@H]6O)C(C)(C)[C@@H]5CC[C@]43C)[C@H]12` land among the classes by reported CC50?
(A) High

(Q) Where would `COC(=O)[C@@]1(C)CC[C@]2(C)CC[C@]3(C)C(=CC(=O)[C@@H]4[C@@]5(C)CC[C@H](O[C@@H]6O[C@H](CO)[C@@H](O[C@@H]7O[C@@H](C)[C@H](O)[C@@H](O)[C@H]7O)[C@H](O)[C@H]6O[C@@H]6O[C@@H](C)[C@H](O)[C@@H](O)[C@H]6O)C(C)(C)[C@@H]5CC[C@]43C)[C@@H]2C1` land among the classes by reported CC50?
(A) Low

(Q) Where would `CNC(=O)[C@]12CC[C@@H](C)[C@H](C)[C@H]1C1=CC[C@@H]3[C@@]4(C)CC[C@H](O[C@@H]5O[C@H](CO)[C@@H](O[C@@H]6O[C@@H](C)[C@H](O)[C@@H](O)[C@H]6O)[C@H](O)[C@H]5O[C@@H]5O[C@@H](C)[C@H](O)[C@@H](O)[C@H]5O)C(C)(C)[C@@H]4CC[C@@]3(C)[C@]1(C)CC2` land among the classes by reported CC50?
(A) High

(Q) Where would `C=C(C)[C@@H]1CC[C@]2(C(=O)OC)CC[C@]3(C)[C@H](CC[C@@H]4[C@@]5(C)CC[C@H](O[C@@H]6O[C@H](CO)[C@@H](O[C@@H]7O[C@@H](C)[C@H](O)[C@@H](O)[C@H]7O)[C@H](O)[C@H]6O[C@@H]6O[C@@H](C)[C@H](O)[C@@H](O)[C@H]6O)C(C)(C)[C@@H]5CC[C@]43C)[C@H]12` land among the classes by reported CC50?
(A) High

(Q) Where would `O=C(NCCN1CCCCC1)c1cc(F)cc(C(F)(F)F)c1` land among the classes by reported CC50?
(A) High

(Q) Where would `C=CCOC(=O)[C@]12CC[C@@H](C)[C@H](C)[C@H]1C1=CC[C@@H]3[C@@]4(C)CC[C@H](O[C@@H]5O[C@H](CO)[C@@H](O[C@@H]6O[C@@H](C)[C@H](O)[C@@H](O)[C@H]6O)[C@H](O)[C@H]5O[C@@H]5O[C@@H](C)[C@H](O)[C@@H](O)[C@H]5O)C(C)(C)[C@@H]4CC[C@@]3(C)[C@]1(C)CC2` land among the classes by reported CC50?
(A) Mid

(Q) Where would `C[C@H]1[C@H](C)CC[C@]2(C(=O)OC3CCCC3)CC[C@]3(C)C(=CC[C@@H]4[C@@]5(C)CC[C@H](O[C@@H]6O[C@H](CO)[C@@H](O[C@@H]7O[C@@H](C)[C@H](O)[C@@H](O)[C@H]7O)[C@H](O)[C@H]6O[C@@H]6O[C@@H](C)[C@H](O)[C@@H](O)[C@H]6O)C(C)(C)[C@@H]5CC[C@]43C)[C@H]12` land among the classes by reported CC50?
(A) Mid

(Q) Where would `COC(=O)[C@]12CC[C@@H](C)[C@H](C)[C@H]1C1=CC[C@@H]3[C@@]4(C)CC[C@@H](O[C@@H]5O[C@H](CO)[C@@H](O[C@@H]6O[C@@H](C)[C@H](O)[C@@H](O)[C@H]6O)[C@H](O)[C@H]5O[C@@H]5O[C@@H](C)[C@H](O)[C@@H](O)[C@H]5O)C(C)(C)[C@@H]4CC[C@@]3(C)[C@]1(C)CC2` land among the classes by reported CC50?
(A) High

(Q) Where would `COC(=O)[C@]12CC[C@@H](C)[C@H](C)[C@H]1C1=CC[C@@H]3[C@@]4(C)CC[C@H](O[C@@H]5O[C@H](CO)[C@@H](O[C@@H]6O[C@@H](C)[C@H](O)[C@@H](O)[C@H]6O)[C@H](O)[C@H]5O[C@@H]5O[C@@H](C)[C@H](O)[C@@H](O)[C@H]5O)C(C)(C)[C@@H]4CC[C@@]3(C)[C@]1(C)CC2` land among the classes by reported CC50?
(A) Low

(Q) Where would `CCCOC(=O)[C@]12CC[C@@H](C)[C@H](C)[C@H]1C1=CC[C@@H]3[C@@]4(C)CC[C@H](O[C@@H]5O[C@H](CO)[C@@H](O[C@@H]6O[C@@H](C)[C@H](O)[C@@H](O)[C@H]6O)[C@H](O)[C@H]5O[C@@H]5O[C@@H](C)[C@H](O)[C@@H](O)[C@H]5O)C(C)(C)[C@@H]4CC[C@@]3(C)[C@]1(C)CC2` land among the classes by reported CC50?
(A) Low
